# System: Ehrlich's ascites carcinoma cell
# experiment-description: Cell-killing effect upon Ehrlich's ascites carcinoma cell using WST
# Assay type: cell-based
# test-settings: 1×10^6 cells, read-out: IC50 (doxorubicin concentration by which 50% of cell-killing effect is obtained)
measured-parameter: pIC50
pIC50 (log units): -log10 of the concentration in mol/L.

Any idea what its pIC50 is? The compound is COc1cccc2c1C(=O)c1c(O)c3c(c(O)c1C2=O)C[C@@](O)(C(=O)CO)C[C@@H]3O[C@H]1C[C@H](N)[C@H](O)[C@H](C)O1 5.46
